- Test system: HOP-92 NSCLC
- experimental protocol: NCI-60 one-dose screen, 48 h (100 = growth as untreated, 0 = no growth, -100 = all killed)
- cond: 10 µM unless noted
About 83,000 compounds went through this panel and 20% of them were active in at least one assay; those are over-represented in the sample as a whole.
// map growth to label using low = under 30%, mid = from 30% up to 80%, high = 80% and over

Solved cases below.
>>> group_label("NC(=S)c1csc(CCNC(=O)c2ccccc2)n1")
"high"
>>> group_label("CSc1ccc(Cl)c(C(=O)Nc2sccc2C(N)=O)c1")
"mid"
>>> group_label("CC(C)(O)c1cccc(F)c1")
"high"
>>> group_label("Cc1ccc(S(=O)(=O)Nc2sccc2-c2nc(-c3ccccc3)no2)cc1")
"high"
>>> group_label("CS(=O)(=O)c1ccc(-c2nc3cc(Cl)ccc3n2CC(=O)N/N=C/c2ccc(Cl)cc2)cc1")
"mid"
>>> group_label("COc1cccc(CCC2CCCN(c3cc(C)nc(N)n3)C2)c1 (stereo unspecified)")
"low"

Q. Each molecule maps to one class by growth. Which class for CCNCCNc1cc(-c2cccc(C(F)(F)F)c2)c(C#N)c2nc3ccccc3n12 ?
A. low

Q. Each molecule maps to one class by growth. Which class for Cc1cc(Cc2cc(C)cc(C(C)(C)C)c2O)c(O)c(C(C)(C)C)c1 ?
A. low
